Hey, just so you know, these numbers are from paper PMC10786891.

- system_tested: T1, EsCas13d, nuclease-dead (Eubacterium siraeum, UniProt B0MS50, R295A;H300A;R849A;H854A)
- T1 sequence: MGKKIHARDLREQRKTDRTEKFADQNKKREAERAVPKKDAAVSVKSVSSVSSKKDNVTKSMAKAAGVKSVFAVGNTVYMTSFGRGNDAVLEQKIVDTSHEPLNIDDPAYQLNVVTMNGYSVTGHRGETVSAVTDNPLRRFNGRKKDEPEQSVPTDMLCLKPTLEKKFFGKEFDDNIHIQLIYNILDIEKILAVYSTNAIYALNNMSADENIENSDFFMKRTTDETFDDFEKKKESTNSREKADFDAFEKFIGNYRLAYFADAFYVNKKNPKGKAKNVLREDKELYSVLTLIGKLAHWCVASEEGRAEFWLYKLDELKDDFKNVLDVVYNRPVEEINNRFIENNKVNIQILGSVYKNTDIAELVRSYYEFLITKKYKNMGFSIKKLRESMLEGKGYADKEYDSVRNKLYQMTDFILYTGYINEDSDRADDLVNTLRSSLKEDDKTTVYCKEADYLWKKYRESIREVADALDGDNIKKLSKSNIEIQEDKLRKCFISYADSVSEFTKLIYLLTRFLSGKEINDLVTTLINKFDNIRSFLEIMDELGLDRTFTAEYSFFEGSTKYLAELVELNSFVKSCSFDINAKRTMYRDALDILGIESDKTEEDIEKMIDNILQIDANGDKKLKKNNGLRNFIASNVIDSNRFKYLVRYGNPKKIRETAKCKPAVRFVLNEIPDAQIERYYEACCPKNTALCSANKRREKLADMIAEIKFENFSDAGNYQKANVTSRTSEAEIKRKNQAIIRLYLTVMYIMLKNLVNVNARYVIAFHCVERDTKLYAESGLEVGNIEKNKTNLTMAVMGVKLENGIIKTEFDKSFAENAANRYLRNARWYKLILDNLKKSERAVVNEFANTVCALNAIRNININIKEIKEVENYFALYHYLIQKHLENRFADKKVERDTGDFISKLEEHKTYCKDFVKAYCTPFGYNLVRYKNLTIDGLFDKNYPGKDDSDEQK
- assay: crRNA (strand 1, pre-loaded); Mg2+; 40 mM Tris-HCl pH 7.5, 150 mM NaCl, 6 mM MgCl2, 1 mM DTT, 0.1% Tween-20, 0.2 mg/ml BSA; 25 C; 10 min per concentration, then washed
- study_conditions: tags: His6-TwinStrep-SUMO cleaved; N-terminal SNAP kept (SNAP-Surface 488); label: 3' end held by stalled T7 RNA polymerase
What log10(Kd) was measured for each of the following?
// do not treat as linear: log10 of Kd, unit nM

Identify the reported log10(Kd) for the following entry. target 1 del7,del14 (mixed) RNA 1: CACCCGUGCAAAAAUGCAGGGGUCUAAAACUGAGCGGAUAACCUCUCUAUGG RNA 2: GGGAAUGGAUCCACAUCUACGAAUUCGUACCAUAGAGGGUUAUCGCUCACCGAGAUCGGAAGAGCACACGU
1.26

Identify the reported log10(Kd) for the following entry. target 1 insA 3' of 11,insG 3' of 7 (mixed) RNA 1: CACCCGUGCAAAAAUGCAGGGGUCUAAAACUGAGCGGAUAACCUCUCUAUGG RNA 2: GGGAAUGGAUCCACAUCUACGAAUUCGUACCAUAGAGAGGUAUAUCGCGCUCACCGAGAUCGGAAGAGCACACGU
1.22

Identify the reported log10(Kd) for the following entry. target 1 insU 3' of 9,insU 3' of 2 (mixed) RNA 1: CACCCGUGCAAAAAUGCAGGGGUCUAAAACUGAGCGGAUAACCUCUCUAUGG RNA 2: GGGAAUGGAUCCACAUCUACGAAUUCGUACCAUAGAGAGGUUAUUCCGCUCUACCGAGAUCGGAAGAGCACACGU
1.31

Identify the reported log10(Kd) for the following entry. target 2 MT 5'PFS UGC 3'PFS AAA (mixed) RNA 1: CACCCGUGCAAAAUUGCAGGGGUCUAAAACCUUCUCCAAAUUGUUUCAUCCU RNA 2: GGGAAUGGAUCCACAUCUACGAAUUCUGCAGGAUGAAACAAUUUGGAGAAGAAAAGAUCGGAAGAGCACACGU
1.15

Identify the reported log10(Kd) for the following entry. target 1 U3A,U8G (mixed) RNA 1: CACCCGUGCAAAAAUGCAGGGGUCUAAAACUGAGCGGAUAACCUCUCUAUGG RNA 2: GGGAAUGGAUCCACAUCUACGAAUUCGUACCAUAGAGAGGUUAGCCGCACACCGAGAUCGGAAGAGCACACGU
1.08

Identify the reported log10(Kd) for the following entry. target 1 A1U,U3A (mixed) RNA 1: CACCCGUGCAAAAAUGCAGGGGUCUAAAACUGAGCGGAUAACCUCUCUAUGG RNA 2: GGGAAUGGAUCCACAUCUACGAAUUCGUACCAUAGAGAGGUUAUCCGCACUCCGAGAUCGGAAGAGCACACGU
0.86

Identify the reported log10(Kd) for the following entry. target 2 MT 5'PFS AGC 3'PFS CUU (mixed) RNA 1: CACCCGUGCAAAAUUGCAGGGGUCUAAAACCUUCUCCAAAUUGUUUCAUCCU RNA 2: GGGAAUGGAUCCACAUCUACGAAUUCAGCAGGAUGAAACAAUUUGGAGAAGCUUAGAUCGGAAGAGCACACGU
1.07

Identify the reported log10(Kd) for the following entry. target 2 MT 5'PFS AUC 3'PFS CUC (mixed) RNA 1: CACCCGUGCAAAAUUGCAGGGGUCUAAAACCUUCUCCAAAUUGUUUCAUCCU RNA 2: GGGAAUGGAUCCACAUCUACGAAUUCAUCAGGAUGAAACAAUUUGGAGAAGCUCAGAUCGGAAGAGCACACGU
1.82

Identify the reported log10(Kd) for the following entry. target 1 U8C (mixed) RNA 1: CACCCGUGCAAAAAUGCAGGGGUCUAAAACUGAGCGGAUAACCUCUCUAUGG RNA 2: GGGAAUGGAUCCACAUCUACGAAUUCGUACCAUAGAGAGGUUACCCGCUCACCGAGAUCGGAAGAGCACACGU
1.05

Identify the reported log10(Kd) for the following entry. target 2 MT 5'PFS ACU 3'PFS AGA (mixed) RNA 1: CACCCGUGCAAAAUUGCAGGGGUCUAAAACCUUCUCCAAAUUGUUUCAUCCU RNA 2: GGGAAUGGAUCCACAUCUACGAAUUCACUAGGAUGAAACAAUUUGGAGAAGAGAAGAUCGGAAGAGCACACGU
0.57

Identify the reported log10(Kd) for the following entry. target 1 insG 3' of 10,insU 3' of 4 (mixed) RNA 1: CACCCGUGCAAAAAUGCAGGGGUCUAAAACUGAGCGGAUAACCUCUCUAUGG RNA 2: GGGAAUGGAUCCACAUCUACGAAUUCGUACCAUAGAGAGGUUGAUCCGCUUCACCGAGAUCGGAAGAGCACACGU
1.51

Identify the reported log10(Kd) for the following entry. target 2 MT 5'PFS GGG 3'PFS UCG (mixed) RNA 1: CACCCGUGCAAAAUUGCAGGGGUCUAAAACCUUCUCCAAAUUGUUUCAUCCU RNA 2: GGGAAUGGAUCCACAUCUACGAAUUCGGGAGGAUGAAACAAUUUGGAGAAGUCGAGAUCGGAAGAGCACACGU
1.06

Identify the reported log10(Kd) for the following entry. target 1 A9U,C22U (mixed) RNA 1: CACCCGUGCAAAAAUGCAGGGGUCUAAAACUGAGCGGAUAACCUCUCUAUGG RNA 2: GGGAAUGGAUCCACAUCUACGAAUUCGUAUCAUAGAGAGGUUUUCCGCUCACCGAGAUCGGAAGAGCACACGU
1.38

Identify the reported log10(Kd) for the following entry. target 3 insA 3' of 4,insC 3' of 3 (mixed) RNA 1: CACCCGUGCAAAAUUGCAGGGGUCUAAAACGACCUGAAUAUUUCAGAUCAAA RNA 2: GGGAAUGGAUCCACAUCUACGAAUUCGUUUUUGAUCUGAAAUAUUCAGAGCUCUGCAGAUCGGAAGAGCACACGU
1.90
